Numbers sourced from patent US20260242478A1.

target: T1, Anti-CD28 Fab (SEQ ID NOs: 696, 697); experiment: phage binding ELISA; biotinylated anti-CD28 Fab on neutravidin plate, clonal phage supernatant, anti-M13 HRP detection
T1 construct: In the phage ELISA the Fab was biotinylated and captured on neutravidin coated plates
T1 sequence (VH, as listed by the source, chain 1 of 2): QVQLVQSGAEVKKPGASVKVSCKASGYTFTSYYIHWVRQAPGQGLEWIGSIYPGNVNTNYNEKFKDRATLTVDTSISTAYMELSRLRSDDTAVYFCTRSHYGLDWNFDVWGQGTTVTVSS
T1 sequence (VL, as listed by the source, chain 2 of 2): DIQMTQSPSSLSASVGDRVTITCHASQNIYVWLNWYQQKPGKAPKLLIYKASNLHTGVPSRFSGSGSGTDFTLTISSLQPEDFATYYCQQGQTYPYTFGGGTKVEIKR
Where no end group is shown, it is not given here.
metricName: Anti-CD28 Fab signal (phage binding ELISA)
Output spec: single numeric token, no unit.

The examples below pair each entry with its known result.
[[record]]
binder = "YCDGHFLTYMTKCL (cysteine pairing not given here; also: displayed fused to phage pIII protein, fusion end and linker not given here, Clonal phage of the peptide-87 library, tested as crude supernatant; not shown: fused to the pIII filament protein of the bacteriophage) [Phage-988]"
number = 1.56

[[record]]
binder = "YCDGHSPLYMVKCL (cysteine pairing not given here; also: displayed fused to phage pIII protein, fusion end and linker not given here, Clonal phage of the peptide-87 library, tested as crude supernatant; not shown: fused to the pIII filament protein of the bacteriophage) [Phage-987]"
number = 1.56

[[record]]
binder = "YCDGHSEVYMSKCL (cysteine pairing not given here; also: displayed fused to phage pIII protein, fusion end and linker not given here, Clonal phage of the peptide-87 library, tested as crude supernatant; not shown: fused to the pIII filament protein of the bacteriophage) [Phage-990]"
number = 1.55


Q: Requested field: Anti-CD28 Fab signal (phage binding ELISA). Item: YCEGHLDMYVWKCL (cysteine pairing not given here; also: displayed fused to phage pIII protein, fusion end and linker not given here, Clonal phage of the peptide-87 library, tested as crude supernatant; not shown: fused to the pIII filament protein of the bacteriophage) [Phage-985]
Result: 1.56
